Target: Recombinant Human Anaplastic Lymphoma Kinase (Homo sapiens, UniProt Q9UM73)
Construct: purchased Invitrogen, Carlsbad, Calif
Sequence (Q9UM73 19-1620): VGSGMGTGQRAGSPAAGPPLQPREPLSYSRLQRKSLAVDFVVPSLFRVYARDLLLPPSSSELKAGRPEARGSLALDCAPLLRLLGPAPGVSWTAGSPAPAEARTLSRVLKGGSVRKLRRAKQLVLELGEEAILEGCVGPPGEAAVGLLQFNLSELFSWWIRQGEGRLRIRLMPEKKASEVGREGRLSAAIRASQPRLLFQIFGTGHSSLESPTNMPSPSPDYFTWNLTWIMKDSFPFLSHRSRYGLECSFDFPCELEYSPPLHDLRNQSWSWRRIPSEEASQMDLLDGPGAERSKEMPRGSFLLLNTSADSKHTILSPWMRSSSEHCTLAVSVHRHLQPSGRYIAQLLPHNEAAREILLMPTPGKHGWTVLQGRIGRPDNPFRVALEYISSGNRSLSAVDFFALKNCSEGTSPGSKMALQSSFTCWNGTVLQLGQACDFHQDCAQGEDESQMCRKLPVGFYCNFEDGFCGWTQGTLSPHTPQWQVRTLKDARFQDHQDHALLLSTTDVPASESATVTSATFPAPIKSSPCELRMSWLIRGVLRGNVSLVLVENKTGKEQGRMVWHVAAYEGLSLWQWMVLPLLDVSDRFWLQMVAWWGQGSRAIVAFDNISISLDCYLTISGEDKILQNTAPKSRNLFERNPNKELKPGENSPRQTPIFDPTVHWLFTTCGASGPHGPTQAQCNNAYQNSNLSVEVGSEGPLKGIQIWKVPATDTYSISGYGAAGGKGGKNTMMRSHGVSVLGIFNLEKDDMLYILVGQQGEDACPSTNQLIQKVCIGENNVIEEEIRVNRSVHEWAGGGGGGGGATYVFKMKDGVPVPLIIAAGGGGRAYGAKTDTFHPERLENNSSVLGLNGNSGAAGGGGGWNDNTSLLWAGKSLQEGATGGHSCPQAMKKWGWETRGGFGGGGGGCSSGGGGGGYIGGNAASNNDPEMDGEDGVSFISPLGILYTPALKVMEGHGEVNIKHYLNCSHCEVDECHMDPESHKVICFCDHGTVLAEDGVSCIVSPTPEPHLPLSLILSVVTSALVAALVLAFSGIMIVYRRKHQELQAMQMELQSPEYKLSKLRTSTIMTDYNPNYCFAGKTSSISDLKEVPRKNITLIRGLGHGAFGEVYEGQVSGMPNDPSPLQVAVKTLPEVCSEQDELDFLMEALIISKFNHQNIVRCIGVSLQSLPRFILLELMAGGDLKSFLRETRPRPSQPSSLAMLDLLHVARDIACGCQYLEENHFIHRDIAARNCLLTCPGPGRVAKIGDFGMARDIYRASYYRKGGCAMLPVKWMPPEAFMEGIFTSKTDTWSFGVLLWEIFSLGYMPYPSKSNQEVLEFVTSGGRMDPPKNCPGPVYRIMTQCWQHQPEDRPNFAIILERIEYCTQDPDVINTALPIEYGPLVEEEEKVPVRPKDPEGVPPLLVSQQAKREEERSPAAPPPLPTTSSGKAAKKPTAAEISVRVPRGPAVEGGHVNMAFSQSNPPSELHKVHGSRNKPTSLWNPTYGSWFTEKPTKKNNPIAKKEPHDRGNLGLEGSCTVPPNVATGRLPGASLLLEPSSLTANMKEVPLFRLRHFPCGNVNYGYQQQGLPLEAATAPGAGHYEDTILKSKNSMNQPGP
Experiment: ALK HTRF kinase assay
Format: biochemical
Settings: compound at 500 nM or 1 mM; 90 μM ATP
Counter-ions that a name gives are not always drawn.
measured.attribute: ALK % of inhibition at a concentration of 500 nM or 1 mM (%)

[P] Cn1cc(C(=O)N2CCC(CC(=O)Nc3ccc4cc3CCc3cncc(c3)Nc3ncc(Cl)c(n3)N4)CC2)cn1 [Example A129, bis(trifluoroacetate)]
[Q] CCNC(=O)N1CCN(C(=O)COc2ccc3cc2CCc2cccc(c2)Nc2ncc(Cl)c(n2)N3)CC1 [Example A12, trifluoroacetate]
[R] COc1cccc(NC(=O)N2CCC(CC(=O)Nc3ccc4cc3CCc3cncc(c3)Nc3ncc(Cl)c(n3)N4)CC2)c1 [Example A153, bis(trifluoroacetate)]
Arrange the items listed above so that ALK % of inhibition at a concentration of 500 nM or 1 mM rises from first to last. State the ranking by listing the labels in the requested order.
Q, P, R
(Q: 17%, P: 32%, R: 52%)
